Attribute: 5-HT2B % Act @ Max Dose
test.system: UniProt:P41595
Sequence (P41595 whole entry, looked up, species assumed): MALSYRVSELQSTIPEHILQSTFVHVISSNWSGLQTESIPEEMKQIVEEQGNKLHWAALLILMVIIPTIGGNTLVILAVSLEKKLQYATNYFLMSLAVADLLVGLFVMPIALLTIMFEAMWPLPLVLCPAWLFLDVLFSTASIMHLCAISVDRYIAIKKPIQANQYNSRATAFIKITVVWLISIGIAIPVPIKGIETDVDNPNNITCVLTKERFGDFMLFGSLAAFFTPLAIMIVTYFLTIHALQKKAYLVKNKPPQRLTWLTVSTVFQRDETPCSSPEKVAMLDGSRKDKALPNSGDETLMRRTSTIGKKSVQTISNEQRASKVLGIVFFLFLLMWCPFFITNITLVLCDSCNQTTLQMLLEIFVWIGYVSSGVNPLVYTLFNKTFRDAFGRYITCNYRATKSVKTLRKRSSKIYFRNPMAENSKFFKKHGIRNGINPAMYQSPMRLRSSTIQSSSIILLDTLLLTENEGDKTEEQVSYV
experimental.protocol: FLIPR Ca2+ flux agonist assay, 5-HT2B
Type: cell-based
experimental.context: Ca2+ flux, HEK293
Reply with just the number (in %).

Here is how some compounds turned out for 5-HT2B % Act @ Max Dose.
compound=CCCN(CC)CCc1c[nH]c2ccccc12 test_system=UniProt:P41595 experimental_readout="5-HT2B % Act @ Max Dose" endpoint_value=80.4
compound="COc1ccc2[nH]cc(CCN(C)C)c2c1 [Compound 5-MeO-DMT, 5-methoxy-N,N-dimethyltryptamine, reference compound]" test_system=UniProt:P41595 experimental_readout="5-HT2B % Act @ Max Dose" endpoint_value=20.5
compound="CN(C)CCc1c[nH]c2cccc(O)c12 [Psilocin, psilocin, reference compound]" test_system=UniProt:P41595 experimental_readout="5-HT2B % Act @ Max Dose" endpoint_value=1.44

Next compound, please.
Query block: Which 5-HT2B % Act @ Max Dose reading was recorded for the compound CN(C)CCc1c[nH]c2ccccc12 [DMT, N,N-dimethyltryptamine, reference compound] ?
Result block: 10.4
